Target: Mu-type opioid receptor (Cavia porcellus)
Sequence (P97266 whole entry): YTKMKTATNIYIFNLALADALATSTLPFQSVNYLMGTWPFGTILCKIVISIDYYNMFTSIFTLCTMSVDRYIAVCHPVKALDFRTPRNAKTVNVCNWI
pKi: −log10 of the molar value.
measure: pKi

                                   molecule                               measured_on  measure  result_number
0  CN1CCC23c4c5ccc(O)c4O[C@H]2C(=NNC(N)=O)CC[C@@]3(O)C1C5 (stereo partly specified)  Mu-type opioid receptor (Cavia porcellus)      pKi           7.82

----------
Assay: Binding affinity against Opioid receptor delta 1 of guinea pig brain membranes using 1 nM of [3H]DADLE as radioligand
Residues, ends and D or L forms follow the SMILES beside them. *: point of attachment. X2 = O=C(N/N=C1/CC[C@@]2(O)[C@H]3Cc4ccc(O)c5c4[C@@]2(CCN3CC2CC2)[C@H]1O5)*; X1 = CN1CC[C@]23c4c5ccc(O)c4O[C@H]2/C(=N\NC(=O)*)CC[C@@]3(O)[C@H]1C5
Measured Ki of individual entries
measure: Ki (nM)

compound	result number
CC(C)CC(NC(=O)C(Cc1ccccc1)NC(=O)NN=C1CC[C@@]2(O)C3Cc4ccc(O)c5c4C2(CCN3CC2CC2)[C@H]1O5)C(=O)O (some centres not stated)	3.1
NC(=O)NN=C1CC[C@@]2(O)C3Cc4ccc(O)c5c4C2(CCN3CC2CC2)[C@H]1O5 (some centres not stated)	3.7
CC[C@H](C)[C@H](NC(=O)[C@H](CCCN=C(N)N)NC(=O)[C@H](CCCN=C(N)N)NC(=O)[C@H](CC(C)C)NC(=O)[C@H](Cc1ccccc1)NC(=O)N/N=C1/CC[C@@]2(O)[C@H]3Cc4ccc(O)c5c4[C@@]2(CCN3CC2CC2)[C@H]1O5)C(=O)OC (X2-FLRRI-OMe)	5.7
CN1CCC23c4c5ccc(O)c4O[C@H]2C(=NNC(N)=O)CC[C@@]3(O)C1C5 (some centres not stated)	69
CC(C)CC(NC(=O)C(Cc1ccccc1)NC(=O)NN=C1CC[C@@]2(O)C3Cc4ccc(O)c5c4C2(CCN3C)[C@H]1O5)C(=O)O (some centres not stated)	6.5
CC[C@H](C)[C@H](NC(=O)[C@H](CCCNC(=N)N)NC(=O)[C@H](CCCNC(=N)N)NC(=O)[C@H](CC(C)C)NC(=O)[C@H](Cc1ccccc1)NC(=O)CNC(=O)CNC(=O)[C@@H](N)Cc1ccc(O)cc1)C(=O)OC	50
CC[C@H](C)[C@H](NC(=O)[C@H](CCCN=C(N)N)NC(=O)[C@H](CCCN=C(N)N)NC(=O)[C@H](CC(C)C)NC(=O)[C@H](Cc1ccccc1)NC(=O)N/N=C1/CC[C@@]2(O)[C@H]3Cc4ccc(O)c5c4[C@@]2(CCN3C)[C@H]1O5)C(=O)OC (X1-FLRRI-OMe)	24
